assay: RP, Waters ACQUITY UPLC BEH C18, 38 °C, 0.24 mL/min; A: water + 0.1% formic acid, pH 3; B: acetonitrile + 0.1% formic acid, pH 3; gradient (min/%B) 0/0 0.25/0 0.4/9 0.8/17 1.9/100 2.1/100 2.11/0 3/0; conditions: stereoisomer not certain
Counter-ions that a name gives are not always drawn.
attributeMeasured: log10 of LC retention time (log10 of the value in min)

compound	log10 of LC retention time
CN(C)C=O [N,N-Dimethylformamide(DMF)]	-0.29
Cc1ncc(CO)c(C=O)c1O [pyridoxal hydrochrolide]	-0.42
O=C1OC2C(O)C(O)OC2C1O (stereo not drawn)	-0.72
O=C(O)C=Cc1ccccc1O [2-Hydroxycinnamic acid, predominantly trans]	0.18
O=C1c2c(O)cc(O)cc2OC(c2ccc(O)c(O)c2)C1O (racemic) [(+-)-Taxifolin]	0.16
N[C@@H](Cc1c[nH]c2ccccc12)C(=O)O	0.06
COc1ccc(C2CC(=O)c3c(O)cc(OC4OC(COC5OC(C)C(O)C(O)C5O)C(O)C(O)C4O)cc3O2)cc1O (stereo not drawn)	0.16
Cn1cncc1C[C@H](N)C(=O)O	-0.82
Oc1cccnc1 [3-Hydroxypyridine]	-0.62
CC(=O)NC(CO)C(=O)O (racemic)	-0.62
CC(N)(Cc1cnc[nH]1)C(=O)O (racemic) [alpha-Methyl-DL-histidine dihydrochloride]	-0.80
NC(=O)c1ccc[n+](C2OC(COP(=O)([O-])O)C(O)C2O)c1 (stereo not drawn) [beta-Nicotinamide mononucleotide]	-0.62
CC=C(C)C(=O)NCC(=O)O	0.07
C[N+](C)(C)CCOP(=O)(O)OP(=O)([O-])OCC1OC(n2ccc(N)nc2=O)C(O)C1O (stereo not drawn)	-0.70
COc1cc(-c2oc3cc(O)cc(O)c3c(=O)c2OC2OC(CO)C(O)C(O)C2O)ccc1O (stereo not drawn) [isorhamnetin-3-O-glucoside]	0.16
Nc1ccn(C2OC3COP(=O)(O)OC3C2O)c(=O)n1 (stereo not drawn) [Cytidine-3',5'-cyclicmonophosphate]	-0.17
O=c1ccn(C2CC(O)C(COP(=O)(O)O)O2)c(=O)[nH]1 (stereo not drawn) [2'-Deoxyuridine-5'-monophosphate disodium salt]	-0.40
O=C(O)Cc1ccccc1O [2-Hydroxyphenylacetic acid]	0.14
